// MIC lookup, one value per entry
- System: Klebsiella pneumoniae
- method: Antibacterial activity against Klebsiella pneumoniae ATCC 13383
- Type: functional
observation.type: MIC

> print(dat)
                                test.smiles  observed.value
1  NCCCC[C@@H](CN1CC(=O)N(c2ccc(N3CN(C[C@H](CCCCN)NC(=O)Cc4ccc5ccccc5c4)CC3=O)cc2)C1)NC(=O)Cc1ccc2ccccc2c1      > 25 µg/mL
2  O=C(O)c1cn(C2CC2)c2cc(N3CCNCC3)c(F)cc2c1=O       0.3 µg/mL
3  CCCCCCCCCCCC(=O)N[C@@H](CCCCN)CN1CC(=O)N(c2ccc(N3CN(C[C@H](CCCCN)NC(=O)CCCCCCCCCCC)CC3=O)cc2)C1      > 25 µg/mL
4  CCCCCCCC(=O)N[C@@H](CCCCN)CN1CC(=O)N(c2ccc(N3CN(C[C@H](CCCCN)NC(=O)CCCCCCC)CC3=O)cc2)C1      > 25 µg/mL
